Data provenance: patent US10894037B2

Target: PmrAC (C-terminal domain of PmrA) (Klebsiella pneumoniae)
Sequence (W9BNR5 121-223): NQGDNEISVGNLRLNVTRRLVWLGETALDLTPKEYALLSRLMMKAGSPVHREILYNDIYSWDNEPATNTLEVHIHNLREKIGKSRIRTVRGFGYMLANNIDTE
Assay: NMR (2D 1H-15N TROSY-HSQC) compound titration for dissociation constant
Format: binding
Text: NMR Spectroscopy and Compound Titrations The preparations of NMR samples were as described previously (Mscielag and Goldschmidt, Expert opinion on investigational drugs 2000, 9, 2351-2369.). […] All the acquired NMR spectra were processed by using NMRPipe (Chen and Groisman, Annual review of microbiology 2013, 67, 83-112) and analyzed with NMRViewJ8.0a.22 (Wosten et al., Molecular microbiology 2006, 60, 39-50). […]

{"compound": "O=S(=O)(O)c1ccc(-c2ncc(-c3ccc(-c4cnc(-c5ccc(S(=O)(=O)O)cc5)o4)cc3)o2)cc1 [Compound E1]", "Kd, µM": 126}

---

Molecular target: PmrA-DNA complex (Klebsiella pneumoniae, UniProt W9BNR5)
Sequence (W9BNR5 whole entry I220D/W181G, one chain of several): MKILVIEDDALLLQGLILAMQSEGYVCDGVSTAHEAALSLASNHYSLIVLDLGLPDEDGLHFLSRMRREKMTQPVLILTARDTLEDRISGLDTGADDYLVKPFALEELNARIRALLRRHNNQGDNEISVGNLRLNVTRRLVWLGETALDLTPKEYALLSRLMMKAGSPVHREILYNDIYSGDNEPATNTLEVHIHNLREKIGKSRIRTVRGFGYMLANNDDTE
Experiment: Fluorescence polarization (FP) assay of inhibition of PmrA-DNA complex formation
Description: Fluorescence Polarization (FP) Measurements Compounds, E1-E5, were purchased from InterBioScreen (Moscow, Russia) (E1: STOCK1S-95047; E2: STOCK1N-13224; E3: STOCK1N-16691; E4: STOCK 1 S-43938; E5: STOCK1S-55283), and the purity are over 90% examined by NMR. The oligonucleotides (5′-[…]-3′, SEQ ID NO: 2) labeled with 6-carboxyfluorescein (6-FAM) at the 5′-position, was dissolved in 10 mM sodium phosphate and 15 mM NaCl pH 7.0 for fluorescence polarization experiments. […]
valueType: IC50 (µM)

{"molecule": "O=S(=O)(O)CC1CSSCC(CS(=O)(=O)O)SS1 (stereo not drawn) [Compound E3]", "measuredResult": 100}
{"molecule": "O=S(=O)(O)CCOCC1CSSCC(COCCS(=O)(=O)O)SS1 (stereo not drawn) [Compound E2]", "measuredResult": 42.5}
{"molecule": "O=S(=O)(O)c1ccc(-c2ncc(-c3ccc(-c4cnc(-c5ccc(S(=O)(=O)O)cc5)o4)cc3)o2)cc1 [Compound E1]", "measuredResult": 10.2}
